- assay_text: Cellular Toxicity (caspase-3) Renal Proximal Tubule (AID 667);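 further: cells exposed to compound for 16 hours at 37 °C before detection; 0% = DMSO basal and 100% = 10 µM staurosporine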
- measurement_context: renal proximal tubule cells; at 91.7 µM (top of the series) unless noted
Active and inactive are the calls of the source. The call rests on the fitted dose curve; in most records, active means well fitted activation curve with a large enough effect; inconclusive means small, poorly fitted or top-dose-only effect, or effect the other way; inactive means flat fitted curve, though single readings scatter.
property: caspase-3 activation

Below are worked cases with known answers.
- CCCCCCCCOC(=O)c1ccccc1C(=O)OCCCCCCCC: -2.49% (inactive)
- CC(C)CCON=O: -0.158% (inactive)
- Oc1cc(Cl)c(Cl)cc1Cl: 4.35% (inactive)
- [Cl-].[Cl-].[Hg+2]: -16% (inactive)
- O=[N+]([O-])c1ccccc1: 0.615% (inactive)

Kindly review the next molecule as well.
Record C[C@H]1CC[C@@H]2[C@@H](C)[C@H]3[C@H](C[C@H]4[C@@H]5CC=C6CC(O[C@@H]7O[C@H](CO)[C@H](O)[C@H](O[C@@H]8O[C@H](CO)[C@@H](O)[C@H](O)[C@H]8O)[C@H]7O[C@H]7O[C@@H](C)[C@H](O)[C@@H](O)[C@H]7O)CC[C@]6(C)[C@H]5CC[C@]34C)N2C1 (some centres not stated) . Reported caspase-3 activation: 5.75% (inactive)
